- target desc: MAPK1 (human)
- assay procedure: Caliper, Mobility shift assay off-chip
- condition label: compound 0.1 µM
property: inhibition (%)

{"molecule": "CN(c1ccc2ccc3ncc(-c4cnn(C)c4)cc3c(=O)c2c1)S(=O)(=O)NCc1ccccn1", "target desc": "MAPK1 (human)", "measurement unit": "%", "recorded number": -4}
{"molecule": "Cn1cc(-c2cnc3ccc4ccc(CS(=O)(=O)NCC5CCCCN5)cc4c(=O)c3c2)cn1 (configuration not stated)", "target desc": "MAPK1 (human)", "measurement unit": "%", "recorded number": 1.1}
{"molecule": "Cn1cc(-c2cnc3ccc4ccc(CS(N)(=O)=O)cc4c(=O)c3c2)cn1", "target desc": "MAPK1 (human)", "measurement unit": "%", "recorded number": -5.5}
{"molecule": "O=c1c2cc(CS(=O)(=O)NCc3ccccn3)ccc2ccc2ncc(C3CCNCC3)cc12", "target desc": "MAPK1 (human)", "measurement unit": "%", "recorded number": -0.1}
{"molecule": "Cn1cc(-c2cnc3ccc4ccc(CS(=O)(=O)CCc5ccccn5)cc4c(=O)c3c2)cn1", "target desc": "MAPK1 (human)", "measurement unit": "%", "recorded number": -2.4}
{"molecule": "O=C(CCc1ccc2ccc3ncc(C4CCNCC4)cc3c(=O)c2c1)NCc1ccccn1", "target desc": "MAPK1 (human)", "measurement unit": "%", "recorded number": -1.2}
{"molecule": "Cn1cc(-c2cnc3ccc4ccc(CS(=O)(=O)NC5CCCCC5)cc4c(=O)c3c2)cn1", "target desc": "MAPK1 (human)", "measurement unit": "%", "recorded number": -4.8}

====

Measured inhibition accompanies every entry in the list below.
- target desc: AURKA (human)
- assay procedure: Caliper, Mobility shift assay off-chip
- condition label: compound 1.0 µM

{"compound": "Cn1cc(-c2cnc3ccc4ccc(CS(N)(=O)=O)cc4c(=O)c3c2)cn1", "inhibition / %": 75.5}
{"compound": "O=C(CCc1ccc2ccc3ncc(C4CCNCC4)cc3c(=O)c2c1)NCc1ccccn1", "inhibition / %": 22.4}
{"compound": "Cn1cc(-c2cnc3ccc4ccc(CS(=O)(=O)CCc5ccccn5)cc4c(=O)c3c2)cn1", "inhibition / %": 48}
{"compound": "Cn1cc(-c2cnc3ccc4ccc(CS(=O)(=O)NCC5CCCCN5)cc4c(=O)c3c2)cn1 (stereo not given)", "inhibition / %": 26.8}
{"compound": "CN(c1ccc2ccc3ncc(-c4cnn(C)c4)cc3c(=O)c2c1)S(=O)(=O)NCc1ccccn1", "inhibition / %": 87.5}

====

Measured inhibition accompanies every entry in the list below.
- target desc: ROCK2 (human) (UniProt O75116)
- Sequence (O75116 whole entry, looked up): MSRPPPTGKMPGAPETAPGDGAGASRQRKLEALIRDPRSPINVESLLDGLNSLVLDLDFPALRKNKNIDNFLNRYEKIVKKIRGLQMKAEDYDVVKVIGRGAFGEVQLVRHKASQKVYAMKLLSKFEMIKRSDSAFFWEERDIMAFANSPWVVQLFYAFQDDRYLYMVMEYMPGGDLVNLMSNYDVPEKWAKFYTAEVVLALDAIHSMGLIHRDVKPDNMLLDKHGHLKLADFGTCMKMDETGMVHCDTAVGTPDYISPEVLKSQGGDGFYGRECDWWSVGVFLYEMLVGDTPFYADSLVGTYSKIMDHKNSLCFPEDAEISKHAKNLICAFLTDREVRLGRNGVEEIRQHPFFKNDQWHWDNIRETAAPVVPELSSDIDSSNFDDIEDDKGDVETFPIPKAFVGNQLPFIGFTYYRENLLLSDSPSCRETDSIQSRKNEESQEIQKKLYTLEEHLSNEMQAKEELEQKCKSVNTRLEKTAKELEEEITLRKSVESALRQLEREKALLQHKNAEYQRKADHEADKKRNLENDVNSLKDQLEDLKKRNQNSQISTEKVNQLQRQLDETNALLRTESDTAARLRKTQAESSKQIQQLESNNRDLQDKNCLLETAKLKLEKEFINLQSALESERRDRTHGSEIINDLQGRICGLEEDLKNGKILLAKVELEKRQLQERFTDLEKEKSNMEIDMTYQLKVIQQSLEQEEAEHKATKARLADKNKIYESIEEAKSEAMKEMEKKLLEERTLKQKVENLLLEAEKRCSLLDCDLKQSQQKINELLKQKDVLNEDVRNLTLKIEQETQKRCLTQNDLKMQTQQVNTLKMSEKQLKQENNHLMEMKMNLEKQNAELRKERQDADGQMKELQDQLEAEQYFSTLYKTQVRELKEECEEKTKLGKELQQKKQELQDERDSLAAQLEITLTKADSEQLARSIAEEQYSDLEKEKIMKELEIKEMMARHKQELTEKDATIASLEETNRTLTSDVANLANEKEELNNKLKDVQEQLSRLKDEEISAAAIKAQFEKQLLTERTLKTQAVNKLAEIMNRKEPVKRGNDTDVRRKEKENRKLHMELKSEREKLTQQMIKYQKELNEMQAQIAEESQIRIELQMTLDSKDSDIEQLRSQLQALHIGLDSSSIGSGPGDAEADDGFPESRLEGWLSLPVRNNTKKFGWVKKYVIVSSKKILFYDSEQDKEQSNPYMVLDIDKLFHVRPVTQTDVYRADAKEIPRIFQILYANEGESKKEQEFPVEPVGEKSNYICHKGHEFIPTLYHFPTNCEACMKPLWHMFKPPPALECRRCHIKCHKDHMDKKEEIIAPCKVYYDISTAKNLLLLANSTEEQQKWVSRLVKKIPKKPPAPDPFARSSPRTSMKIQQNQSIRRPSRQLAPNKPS
- assay procedure: Caliper, Mobility shift assay off-chip
- condition label: compound 1.0 µM

{"compound": "Cn1cc(-c2cnc3ccc4ccc(CS(N)(=O)=O)cc4c(=O)c3c2)cn1", "target desc": "ROCK2 (human) (UniProt O75116)", "inhibition, %": 2}
{"compound": "O=C(CCc1ccc2ccc3ncc(C4CCNCC4)cc3c(=O)c2c1)NCc1ccccn1", "target desc": "ROCK2 (human) (UniProt O75116)", "inhibition, %": 4.2}
{"compound": "CN(c1ccc2ccc3ncc(-c4cnn(C)c4)cc3c(=O)c2c1)S(=O)(=O)NCc1ccccn1", "target desc": "ROCK2 (human) (UniProt O75116)", "inhibition, %": 20.8}
{"compound": "Cn1cc(-c2cnc3ccc4ccc(CS(=O)(=O)NCC5CCCCN5)cc4c(=O)c3c2)cn1 (stereo not given)", "target desc": "ROCK2 (human) (UniProt O75116)", "inhibition, %": -1.6}
{"compound": "Cn1cc(-c2cnc3ccc4ccc(CS(=O)(=O)CCc5ccccn5)cc4c(=O)c3c2)cn1", "target desc": "ROCK2 (human) (UniProt O75116)", "inhibition, %": -5.4}
